Test System: T1, Human CD44v6 iso4-Fc (human, UniProt P16070-4 21-606, limits assumed, chemically biotinylated in the form called Bio-CD44v6)
T1 construct: Custom ordered from ProMab, produced in HKB11 cells; The biotinylated and the plain form are kept as one molecule; also called Bio-CD44v6; bio-CD44v6
T1 sequence (P16070 other isoform, or with tags, fused parts or gaps limits assumed): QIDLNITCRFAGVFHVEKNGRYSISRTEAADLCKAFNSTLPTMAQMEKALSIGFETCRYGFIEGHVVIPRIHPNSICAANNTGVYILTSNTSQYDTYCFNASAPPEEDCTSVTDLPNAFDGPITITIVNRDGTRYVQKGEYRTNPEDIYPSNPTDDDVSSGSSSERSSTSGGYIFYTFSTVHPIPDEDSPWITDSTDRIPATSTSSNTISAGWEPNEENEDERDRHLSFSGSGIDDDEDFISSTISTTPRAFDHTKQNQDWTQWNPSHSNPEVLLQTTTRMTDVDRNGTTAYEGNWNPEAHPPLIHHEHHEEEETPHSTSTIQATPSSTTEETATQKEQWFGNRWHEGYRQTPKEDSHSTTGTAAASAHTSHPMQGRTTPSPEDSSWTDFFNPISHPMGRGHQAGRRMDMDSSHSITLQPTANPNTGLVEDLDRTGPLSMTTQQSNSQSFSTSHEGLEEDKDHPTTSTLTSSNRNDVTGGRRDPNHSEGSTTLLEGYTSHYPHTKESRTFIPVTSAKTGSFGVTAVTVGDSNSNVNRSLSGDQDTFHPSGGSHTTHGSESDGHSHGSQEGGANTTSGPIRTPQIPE
Test Protocol: SPR SCK, antibody immobilised, CD44v6-Fc injected
Metric Name: koff (s⁻¹)
The figure you give is taken to be in s⁻¹; do not add the unit.

AL-MN114-132 IgG1 LALA (antibody, V domains shown, item 20 iii) gives heavy 77 / light 96 without naming the format) VH: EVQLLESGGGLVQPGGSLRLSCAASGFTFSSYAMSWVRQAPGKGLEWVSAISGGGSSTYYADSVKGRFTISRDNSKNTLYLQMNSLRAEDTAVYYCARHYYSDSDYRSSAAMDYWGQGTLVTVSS VL: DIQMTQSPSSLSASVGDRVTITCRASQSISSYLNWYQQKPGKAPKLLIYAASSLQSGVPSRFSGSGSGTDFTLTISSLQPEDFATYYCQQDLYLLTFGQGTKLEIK    0.00012
AL-MN114-132 IgG1 LALA IAHA (antibody, V domains shown, Human IgG1 LALA IAHA, kappa) VH: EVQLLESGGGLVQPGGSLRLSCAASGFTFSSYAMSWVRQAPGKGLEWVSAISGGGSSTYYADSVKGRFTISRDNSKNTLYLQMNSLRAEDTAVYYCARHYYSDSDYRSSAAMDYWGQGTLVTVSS VL: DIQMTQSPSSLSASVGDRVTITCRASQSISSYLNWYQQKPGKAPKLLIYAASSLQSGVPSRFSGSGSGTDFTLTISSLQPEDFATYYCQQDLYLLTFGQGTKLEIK    0.00021
AL-MN114-444 IgG1 LALA IAHA (antibody, V domains shown, Human IgG1 LALA IAHA, kappa) VH: EVQLLESGGGLVQPGGSLRLSCAASGFTFRSFAMSWVRQAPGKGLEWVSAISGGGSSTFYADSVKGRFTISRDNSKNTLYLQMNSLRAEDTAVYYCARHYYSDSDYRSSAAMDYWGQGTLVTVSS VL: DIQMTQSPSSLSASVGDRVTITCRASQSIGSYLNWYQQKPGKAPKLLIYSASSLQSGVPSRFSGSGSGTDFTLTISSLQPEDFATYYCQQDLYLLTFGQGTKLEIK    0.00032
AL-MN114-71 IgG1 LALA IAHA (antibody, V domains shown, Human IgG1 LALA IAHA, kappa) VH: EVQLLESGGGLVQPGGSLRLSCAASGFSFRSFAMSWVRQAPGKGLEWVSAISGGGSSTFYADSVKGRFTISRDNSKNTLYLQMNSLRAEDTAVYYCARHYYSDSDYRSSAAMDYWGQGTLVTVSS VL: DIQMTQSPSSLSASVGDRVTITCRASQSISSYLNWYQQKPGKAPKLLIYAASTLQSGVPSRFSGSGSGTDFTLTISSLQPEDFATYYCQQDLYLLTFGQGTKLEIK    0.00026

Could you now consider this next binder?
Q: Requested read-out: koff. Entry: AL-MN114-465 IgG1 LALA IAHA (antibody, V domains shown, Human IgG1 LALA IAHA, kappa) VH: EVQLLESGGGLVQPGGSLRLSCAASGFSFGSYAMSWVRQAPGKGLEWVSAISAGGSSTFYADSVKGRFTISRDNSKNTLYLQMNSLRAEDTAVYYCARHYYSDSDYRSSAAMDYWGQGTLVTVSS VL: DIQMTQSPSSLSASVGDRVTITCRASQSISSYLNWYQQKPGKAPKLLIYTASSLQSGVPSRFSGSGSGTDFTLTISSLQPEDFATYYCQQDLYLLTFGQGTKLEIK
Ans: 0.00027
